- assay-target: human GPRC5D (human, UniProt Q9NZD1 1-345)
- Sequence (Q9NZD1 whole entry): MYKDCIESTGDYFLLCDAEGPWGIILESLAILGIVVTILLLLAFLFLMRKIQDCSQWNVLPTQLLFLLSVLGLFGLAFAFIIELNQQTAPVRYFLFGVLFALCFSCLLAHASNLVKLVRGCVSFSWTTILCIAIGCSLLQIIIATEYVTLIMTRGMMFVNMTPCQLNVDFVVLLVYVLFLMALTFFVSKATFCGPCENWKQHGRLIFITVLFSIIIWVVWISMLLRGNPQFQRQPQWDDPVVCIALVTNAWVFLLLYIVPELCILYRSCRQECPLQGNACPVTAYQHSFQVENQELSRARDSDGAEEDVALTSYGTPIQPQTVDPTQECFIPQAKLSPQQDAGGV
- method-summary: cell-based or functional assay
Given measured CAR-J2 EC50 (PGLALA-CAR-J activation, L363 target cells), output YES if it is greater than or equal to 3 ng/mL and NO if not.

Prompt line: Reported CAR-J2 EC50 (PGLALA-CAR-J activation, L363 target cells) reaches at least 3 ng/mL for P1AE5723 (antibody, V domains shown) VH: EVQLLESGGGLVQPGGSLRLSCAASGFTFSKYAMAWVRQAPGKGLEWVASISTGGVNTYYADSVKGRFTISRDNSKNTLYLQMNSLRAEDTAVYYCATHTGDYFDYWGQGTMVTVSS VL: EIVLTQSPGTLSLSPGERATLSCRASQSVSISGINLMNWYQQKPGQQPKLLIYHASILASGIPDRFSGSGSGTDFTLTISRLEPEDFAVYYCQQTRESPLTFGQGTRLEIK ?
Response line: YES

Prompt line: Quick one: P1AE5719 (antibody, V domains shown) VH: ELQLLESGGGLVQPGGSLRLSCAASGFTFSKYAMAWVRQAPGKGLEWVASISTGGVNTYYRDSVKARFTISRDNAKNTLYLQMNSLRAEDTAVYYCATHTGDYFDYWGQGTMVTVSS VL: DIQMTQSPSSLSASVGDRVTITCRASQSVSISGINLMNWYQQKPGQQPKLLIYHASILASGVPSRFSGSGSGTDFTLTISSLQPEDFATYYCQQTRESPLTFGQGTRLEIK
Response line: NO

Prompt line: Please do the same for P1AE5731 (antibody, V domains shown) VH: ELQLLESGGGLVQPGGSLRLSCAASGFTFSKYAMAWVRQAPGKGLEWVASISTGGVNTYYADSVKGRFTISRDNAKNTLYLQMNSLRAEDTAVYYCATHTGDYFDYWGQGTMVTVSS VL: DIQMTQSPSSLSASVGDRVTITCRASQSVSISGINLMNWYQQKPGQQPKLLIYHASILASGVPSRFSGSGSGTDFTLTISSLQPEDFATYYCQQTRESPLTFGQGTRLEIK as well.
Response line: NO

Prompt line: Okay, and P1AE5726 (antibody, V domains shown) VH: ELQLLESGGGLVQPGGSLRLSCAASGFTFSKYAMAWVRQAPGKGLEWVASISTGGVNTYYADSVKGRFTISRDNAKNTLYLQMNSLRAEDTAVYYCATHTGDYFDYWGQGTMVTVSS VL: DIVMTQSPDSLAVSLGERATINCRASQSVSISGINLMNWYQQKPGQQPKLLIYHASILASGVPDRFSGSGSGTDFTLTISSLQAEDVAVYYCQQTRESPLTFGQGTRLEIK ?
Response line: YES

Would you kindly look at the next entry?
Prompt line: Decide: is the reported value of CAR-J2 EC50 (PGLALA-CAR-J activation, L363 target cells) for P1AE5716 (antibody, V domains shown) VH: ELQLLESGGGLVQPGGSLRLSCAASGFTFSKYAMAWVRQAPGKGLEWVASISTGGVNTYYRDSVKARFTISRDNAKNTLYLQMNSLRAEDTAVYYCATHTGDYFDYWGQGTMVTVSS VL: EIVLTQSPGTLSLSPGERATLSCRASQSVSISGINLMNWYQQKPGQQPRLLIYHASILASGIPDRFSGSGSGTDFTLTISRLEPEDFAVYYCQQTRESPLTFGQGTRLEIK equal to or greater than 3 ng/mL?
Response line: YES
